Experiment: Single ascending dose IV study in healthy adult subjects (safety, PK)
Format: in vivo, human
Conditions: human, plasma; 200 mg 1-hour IV infusion; read-out: Cmax
Protocol: In a first study, CD101 was administered by IV injection to healthy adult subjects. […] Dose levels of CD101 assessed follow an ascending single-dose regimen (50, 100, 200, or 400 mg). Pharmacokinetics were first determined by analyzing plasma and urine samples for concentration of CD101 obtained from subjects who received CD101 in each cohort at various time points after administration of the single dose of the study drug.
*1 amine or outer side, *2 acyl side, *3 side chain or, on linkers, in order; H or OH if unused. Where a SMILES comes first, the peptide text is derived from it. Bridges are numbered along the chain shown (N, C = ends). [ ]: non-standard residue; d: D form. The star is where a group is joined. Orn(4R-OH,5R-OCH2CH2NMe3+) = C[N+](C)(C)CCO[C@@H](N[*:3])[C@H](O)C[C@H](N[*:1])C(=O)[*:2]; pTerphenylCO(4''-OnC5H11) = CCCCCOc1ccc(-c2ccc(-c3ccc(C(=O)*)cc3)cc2)cc1; hTyr(3S-OH,4S-OH) = N[C@H](C(=O)O)[C@H](O)[C@@H](O)c1ccc(O)cc1; Pro(3S-OH,4S-Me) = C[C@H]1CN[C@H](C(=O)O)[C@H]1O; Hyp = O=C(O)[C@@H]1C[C@@H](O)CN1
QUANTITY: Cmax
Number first, unit second.

Inquiry: Using known records, supply Cmax for CCCCCOc1ccc(-c2ccc(-c3ccc(C(=O)N[C@H]4C[C@@H](O)[C@@H](OCC[N+](C)(C)C)NC(=O)[C@@H]5[C@@H](O)[C@@H](C)CN5C(=O)[C@H]([C@@H](C)O)NC(=O)[C@H]([C@H](O)[C@@H](O)c5ccc(O)cc5)NC(=O)[C@@H]5C[C@@H](O)CN5C(=O)[C@H]([C@@H](C)O)NC4=O)cc3)cc2)cc1 [CD101] ({pTerphenylCO(4''-OnC5H11)}-[Orn(4R-OH,5R-OCH2CH2NMe3+)]T[Hyp][hTyr(3S-OH,4S-OH)]T[Pro(3S-OH,4S-Me)]; lactam 1-C)
Reply text: 10900 ng/mL
